Target: AXL (Homo sapiens, UniProt P30530)
Sequence (P30530 26-894): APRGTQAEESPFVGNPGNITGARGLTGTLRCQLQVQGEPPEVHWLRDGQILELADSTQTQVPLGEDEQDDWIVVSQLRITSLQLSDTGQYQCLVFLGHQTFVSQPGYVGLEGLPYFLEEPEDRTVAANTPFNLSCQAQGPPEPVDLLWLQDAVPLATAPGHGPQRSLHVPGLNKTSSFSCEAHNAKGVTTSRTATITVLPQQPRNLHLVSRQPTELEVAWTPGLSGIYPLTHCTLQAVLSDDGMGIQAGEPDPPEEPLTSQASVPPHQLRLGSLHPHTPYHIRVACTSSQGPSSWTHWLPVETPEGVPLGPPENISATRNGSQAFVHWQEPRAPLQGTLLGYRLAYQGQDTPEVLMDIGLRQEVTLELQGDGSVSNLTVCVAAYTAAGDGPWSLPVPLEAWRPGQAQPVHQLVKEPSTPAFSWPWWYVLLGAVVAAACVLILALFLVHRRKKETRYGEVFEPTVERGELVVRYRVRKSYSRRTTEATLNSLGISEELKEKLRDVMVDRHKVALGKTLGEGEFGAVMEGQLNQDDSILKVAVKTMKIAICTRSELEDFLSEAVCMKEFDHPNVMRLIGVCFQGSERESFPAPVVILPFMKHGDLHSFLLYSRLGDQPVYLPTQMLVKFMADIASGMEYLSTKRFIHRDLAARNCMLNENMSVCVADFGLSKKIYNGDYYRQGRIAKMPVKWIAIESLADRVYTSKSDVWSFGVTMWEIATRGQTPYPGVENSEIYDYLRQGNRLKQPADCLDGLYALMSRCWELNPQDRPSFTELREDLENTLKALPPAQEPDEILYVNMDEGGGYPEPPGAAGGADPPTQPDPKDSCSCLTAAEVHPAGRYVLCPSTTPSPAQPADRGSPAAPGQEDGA
Assay: AXL enzymatic assay (ADP-Glo)
Type: biochemical
Conditions: ATP 50 μM, read-out: IC50 AXL
pIC50: −log10 of the molar value.

structure as smiles: CC(=O)Nc1cccc(-c2c[nH]c3ncnc(Oc4ccc(NC(=O)c5cccn(-c6ccc(F)cc6)c5=O)cc4)c23)c1
target under test: AXL (Homo sapiens, UniProt P30530)
pIC50: 7.98
//
structure as smiles: CC(=O)Nc1cccc(-c2c(-c3cnn(C)c3)oc3ncnc(Oc4ccc(NC(=O)c5cn(C)n(-c6ccc(F)cc6)c5=O)cc4)c23)c1
target under test: AXL (Homo sapiens, UniProt P30530)
pIC50: 7.92
//
structure as smiles: CN(C)Cc1cccc(-c2c(-c3cnn(C)c3)oc3ncnc(Oc4ccc(NC(=O)c5cn(C)n(-c6ccc(F)cc6)c5=O)cc4)c23)c1
target under test: AXL (Homo sapiens, UniProt P30530)
pIC50: 8.01
//
structure as smiles: Nc1cccc(-c2c[nH]c3ncnc(Oc4ccc(NC(=O)c5cccn(-c6ccc(F)cc6)c5=O)cc4)c23)c1
target under test: AXL (Homo sapiens, UniProt P30530)
pIC50: 7.89

---

Target: MERTK (Homo sapiens, UniProt Q12866)
Sequence (Q12866 21-999): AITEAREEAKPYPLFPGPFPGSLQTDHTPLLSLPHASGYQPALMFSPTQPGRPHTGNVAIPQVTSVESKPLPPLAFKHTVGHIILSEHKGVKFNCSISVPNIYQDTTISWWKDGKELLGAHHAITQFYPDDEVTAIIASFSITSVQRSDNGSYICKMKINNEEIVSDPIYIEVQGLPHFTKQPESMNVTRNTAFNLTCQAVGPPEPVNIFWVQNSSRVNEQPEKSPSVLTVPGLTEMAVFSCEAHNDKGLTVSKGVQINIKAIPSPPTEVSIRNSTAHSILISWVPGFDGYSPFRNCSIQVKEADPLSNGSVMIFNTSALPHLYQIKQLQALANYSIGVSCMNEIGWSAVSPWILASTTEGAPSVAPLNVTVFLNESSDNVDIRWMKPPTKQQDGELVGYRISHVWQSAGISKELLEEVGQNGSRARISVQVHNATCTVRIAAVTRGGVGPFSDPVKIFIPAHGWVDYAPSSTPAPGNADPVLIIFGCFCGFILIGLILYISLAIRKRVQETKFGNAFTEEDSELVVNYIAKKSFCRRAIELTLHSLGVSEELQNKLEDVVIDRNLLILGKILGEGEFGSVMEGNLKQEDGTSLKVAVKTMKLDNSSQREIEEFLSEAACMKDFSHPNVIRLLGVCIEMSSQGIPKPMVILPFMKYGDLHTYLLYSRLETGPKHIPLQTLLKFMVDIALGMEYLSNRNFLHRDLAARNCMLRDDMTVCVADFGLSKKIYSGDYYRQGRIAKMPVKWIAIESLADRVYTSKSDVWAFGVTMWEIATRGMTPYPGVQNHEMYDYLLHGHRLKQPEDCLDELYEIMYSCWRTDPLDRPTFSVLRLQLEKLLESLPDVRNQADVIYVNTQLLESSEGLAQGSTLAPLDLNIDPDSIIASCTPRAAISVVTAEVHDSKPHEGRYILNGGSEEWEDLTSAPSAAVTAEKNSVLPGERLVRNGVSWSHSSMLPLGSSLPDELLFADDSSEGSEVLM
Test: MERTK enzymatic assay (Kinase Glo)
Format: biochemical
Details: purified kinase, ATP 12 μM, read-out: MER Enzymatic Inhibition (%)

structure as smiles: CC(=O)Nc1cccc(-c2c(-c3cnn(C)c3)oc3ncnc(Oc4ccc(NC(=O)c5c(C)ccn(-c6ccc(F)cc6)c5=O)cc4)c23)c1
IC50: 100 to 50000 nM
//
structure as smiles: CC(=O)Nc1cccc(-c2coc3ncnc(Oc4ccc(NC(=O)c5cccn(-c6ccc(F)cc6)c5=O)cc4)c23)c1
IC50: 100 to 50000 nM
//
structure as smiles: Cn1cc(-c2oc3ncnc(Oc4ccc(NC(=O)c5cc6c(n(-c7ccc(F)cc7)c5=O)CCCC6=O)cc4)c3c2-c2cccc(N)c2)cn1
IC50: 20 to 100 nM
//
structure as smiles: O=C(Nc1ccc(Oc2ncnc3ccsc23)cc1)c1cccn(-c2ccc(F)cc2)c1=O
IC50: 100 to 50000 nM
//
structure as smiles: Cc1cc(F)ccc1-n1cccc(C(=O)Nc2ccc(Oc3ncnc4oc(-c5cnn(C)c5)c(-c5cccc(N)c5)c34)cc2)c1=O
IC50: 20 to 100 nM
//
structure as smiles: NCc1cccc(-c2c[nH]c3ncnc(Nc4ccc(NC(=O)c5cccn(-c6ccc(F)cc6)c5=O)cc4)c23)c1
IC50: 20 to 100 nM
//
structure as smiles: Cn1cc(-c2oc3ncnc(Oc4ccc(NC(=O)c5cccn(-c6ccc(F)cc6)c5=O)cc4)c3c2-c2cccnc2)cn1
IC50: 100 to 50000 nM

---

Molecular target: MERTK (Homo sapiens)
Assay: MERTK enzymatic assay (Kinase Glo)
Format: biochemical
Details: purified kinase, ATP 12 μM, read-out: MER Enzymatic Inhibition (%)
measurement name: IC50

structure as smiles: CN1CCN(c2ccc(-c3c(-c4cnn(C)c4)oc4ncnc(Oc5ccc(NC(=O)c6cccn(-c7ccc(F)cc7)c6=O)cc5)c34)cc2)CC1
measurement name: IC50
result value: < 20 nM

structure as smiles: CN(C)Cc1cccc(-c2c(-c3cnn(C)c3)oc3ncnc(Oc4ccc(NC(=O)c5cccn(-c6ccc(F)c(F)c6)c5=O)cc4)c23)c1
measurement name: IC50
result value: < 20 nM

structure as smiles: Cn1cc(-c2oc3ncnc(Oc4ccc(NC(=O)c5cccn(-c6ccccc6)c5=O)cc4)c3c2-c2cccc(N)c2)cn1
measurement name: IC50
result value: 20 to 100 nM
